# assay.target: histamine H3 receptor (Homo sapiens, UniProt Q9Y5N1)
# Construct: expressed in transfected cells; host or cells: CHO K1 cells carrying pSwitch, transfected with pGeneH3 and induced with mifepristone; clone 3H3; membrane preparation
# Sequence (Q9Y5N1 whole entry): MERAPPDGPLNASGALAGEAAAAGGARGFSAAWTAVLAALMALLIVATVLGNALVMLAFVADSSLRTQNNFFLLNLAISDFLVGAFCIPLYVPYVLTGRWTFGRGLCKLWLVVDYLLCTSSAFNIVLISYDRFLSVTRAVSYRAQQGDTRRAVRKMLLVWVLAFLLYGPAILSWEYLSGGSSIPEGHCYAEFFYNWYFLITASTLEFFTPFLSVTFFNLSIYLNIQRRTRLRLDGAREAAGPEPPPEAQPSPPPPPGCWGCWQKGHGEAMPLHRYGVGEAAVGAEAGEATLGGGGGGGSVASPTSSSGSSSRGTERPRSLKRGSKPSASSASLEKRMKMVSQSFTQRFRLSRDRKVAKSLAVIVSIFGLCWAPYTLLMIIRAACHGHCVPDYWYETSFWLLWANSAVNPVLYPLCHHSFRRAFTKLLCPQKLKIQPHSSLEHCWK
# assay.text: Histamine H3 functional antagonist assay (method A), [35S]-GTPγS SPA on membranes
# Assay type: biochemical
# particulars: functional pKi, membrane from cultured H3 cells (CHO K1), histamine at EC80, averages of a number of experiments, read-out: Antagonism (fpKi) (converted)
value.kind: Ki (nM)

[A] O=C1OCCN1c1ccc(Oc2ccc3c(c2)CCN(C2CCCC2)CC3)nn1
[B] Cc1noc(-c2ccc(Oc3ccc4c(c3)CCN(C3CCC3)CC4)nc2)n1
[C] O=C1CCCN1c1ccc(Oc2ccc3c(c2)CCN(C2CCC2)CC3)cc1
[D] Cc1noc(-c2ccc(Oc3ccc4c(c3)CCN(C3CCCC3)CC4)nc2)n1
Order the above compounds by increasing Ki. The labels, placed in the requested order, form the answer.
A, B, C, D

[I] O=C1CCCN1c1ccc(Oc2ccc3c(c2)CCN(C2CCCC2)CC3)nc1
[II] Cc1noc(-c2cnc(Oc3ccc4c(c3)CCN(C3CCCC3)CC4)cn2)n1
Sorting ascending by Ki, which comes first: I or II ? Your answer should be the label of the entry you select.
I

====

# assay.target: histamine H3 receptor (Homo sapiens, UniProt Q9Y5N1)
# Construct: expressed in transfected cells; host or cells: CHO K1 cells carrying pSwitch, transfected with pGeneH3 and induced with mifepristone; clone 3H3; membrane preparation
# assay.text: Histamine H3 functional antagonist assay (method A), [35S]-GTPγS SPA on membranes
# Format: biochemical
# particulars: functional pKi, membrane from cultured H3 cells (CHO K1), histamine at EC80, averages of a number of experiments, read-out: Antagonism (fpKi) (converted)
# Description: A membrane preparation containing histamine H3 receptors may be prepared in accordance with the following procedures: (i) Generation of Histamine H3 Cell Line […] 10-14 days post selection 10 nM Mifepristone (InVitrogen), was added to the culture medium to induce the expression of the receptor. […] Receptor bound antibody was detected by incubation of the cells for 60 minutes on ice with a goat anti rabbit antibody, conjugated with Alexa 488 fluorescence marker (Molecular Probes). […]
value.kind: Ki (nM)

Record summary for O=C1CCCN1c1cnc(Oc2ccc3c(c2)CCN(C2CCCC2)CC3)cn1 : reported Ki = 0.0794

[P] CN1CCN(c2ccc(Oc3ccc4c(c3)CCN(C3CCC3)CC4)c(F)c2)C1=O
[Q] O=C1CCCN1c1ccc(Oc2ccc3c(c2)CCN(C2CCCC2)CC3)nn1
Sorting ascending by Ki, which comes first: P or Q ? Your answer should be the label of the entry you select.
P
